Kindly supply the reported pIC50 values for the records listed here.
- Tested on: NCI H1975 (human non-small cell lung cancer cell lines)
- Assay details: Growth inhibition test in tumor cells (CCK8), NCI-H1975
- Type: cell-based
- Details: 72 h
Answers are plain numbers, as −log10 of the molar value.

{"Compound": "CCOCCOc1cc2ncnc(Nc3ccc(F)c(Cl)c3)c2cc1NC(=O)/C=C/Cl [Embodiment 31]", "Result value": 8.13}

Return reported pIC50 values for all items listed beneath this line.
1. CCOCCOc1cc2ncnc(Nc3ccc(F)c(Cl)c3)c2cc1NC(=O)/C=C/C(F)(F)F [Embodiment 36]
2. C#CC(=O)Nc1cc2c(Nc3ccc(F)c(Cl)c3)ncnc2cc1OCCOCC [Embodiment 25]

Response given:
1. 7.56
2. 7.31

Challenge: Give recorded pIC50. C=CS(=O)(=O)Nc1cc2c(Nc3ccc(F)c(Cl)c3)ncnc2cc1OCCOCC [Embodiment 24]
Response given: 7.86

* * *

- Measured target: Her-2 enzyme (Homo sapiens (Human), UniProt P04626)
- Sequence (P04626 23-1255): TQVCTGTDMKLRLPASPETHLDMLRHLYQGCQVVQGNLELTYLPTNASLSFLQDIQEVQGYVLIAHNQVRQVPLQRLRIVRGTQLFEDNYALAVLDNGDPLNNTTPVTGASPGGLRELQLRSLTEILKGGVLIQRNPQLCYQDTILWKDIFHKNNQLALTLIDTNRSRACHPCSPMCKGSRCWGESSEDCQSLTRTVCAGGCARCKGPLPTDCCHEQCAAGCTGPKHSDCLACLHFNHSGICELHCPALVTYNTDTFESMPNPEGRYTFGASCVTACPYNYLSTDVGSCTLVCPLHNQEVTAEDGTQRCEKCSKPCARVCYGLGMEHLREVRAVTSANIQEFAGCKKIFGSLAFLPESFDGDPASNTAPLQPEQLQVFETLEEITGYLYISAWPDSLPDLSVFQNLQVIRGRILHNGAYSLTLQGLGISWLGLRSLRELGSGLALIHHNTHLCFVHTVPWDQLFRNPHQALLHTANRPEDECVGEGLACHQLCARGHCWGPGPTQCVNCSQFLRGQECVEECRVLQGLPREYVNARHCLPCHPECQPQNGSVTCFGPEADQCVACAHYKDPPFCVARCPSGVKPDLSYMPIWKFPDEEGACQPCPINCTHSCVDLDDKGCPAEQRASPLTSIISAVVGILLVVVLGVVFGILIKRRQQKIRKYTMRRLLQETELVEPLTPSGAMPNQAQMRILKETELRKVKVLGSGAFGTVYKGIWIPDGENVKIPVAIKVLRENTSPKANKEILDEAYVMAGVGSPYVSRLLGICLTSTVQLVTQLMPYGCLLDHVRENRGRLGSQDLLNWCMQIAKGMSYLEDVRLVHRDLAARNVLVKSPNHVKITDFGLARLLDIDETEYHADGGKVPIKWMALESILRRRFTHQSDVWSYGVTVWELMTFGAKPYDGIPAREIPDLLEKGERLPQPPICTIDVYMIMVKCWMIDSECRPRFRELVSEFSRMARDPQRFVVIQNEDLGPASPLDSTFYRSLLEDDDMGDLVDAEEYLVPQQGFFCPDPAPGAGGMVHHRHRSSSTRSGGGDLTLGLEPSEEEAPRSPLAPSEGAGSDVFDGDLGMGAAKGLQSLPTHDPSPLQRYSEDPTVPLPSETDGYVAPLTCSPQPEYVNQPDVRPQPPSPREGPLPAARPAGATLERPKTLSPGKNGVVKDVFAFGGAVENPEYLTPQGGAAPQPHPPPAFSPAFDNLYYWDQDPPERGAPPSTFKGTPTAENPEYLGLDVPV
Param label: returns YES when IC50 < 300 nM, returns NO otherwise, including exact equality.

A selection of reference data follows.
{"Chem smiles": "COCCCOc1cc2ncnc(Nc3ccc(F)c(Cl)c3)c2cc1NC(=O)/C=C/CN(C)C", "Class name": "YES"}
{"Chem smiles": "CCOCCOc1cc2ncnc(Nc3ccc(OCc4cccc(F)c4)c(Cl)c3)c2cc1NC(=O)/C=C/CN(C)C", "Class name": "YES"}
{"Chem smiles": "COC[C@H](C)Oc1cc2ncnc(Nc3ccc(F)c(Cl)c3)c2cc1NC(=O)/C=C/CN(C)C", "Class name": "NO"}
{"Chem smiles": "CCOCCOc1cc2ncnc(Nc3ccc(OCc4ccccn4)c(Cl)c3)c2cc1NC(=O)/C=C/CN(C)C", "Class name": "YES"}
{"Chem smiles": "CCOCCOc1cc2ncnc(Nc3ccc(F)c(Cl)c3)c2cc1NC(=O)/C=C/CN(CC)CC", "Class name": "YES"}

Next:
Challenge: Threshold test, IC50 < 300 nM: `CCCOCCOc1cc2ncnc(Nc3ccc(F)c(Cl)c3)c2cc1NC(=O)/C=C/CN(C)C`
Response given: YES

* * *

- Measured target: EGFR tyrosine kinase (Homo sapiens (Human), UniProt P00533)
- Sequence (P00533 25-1210): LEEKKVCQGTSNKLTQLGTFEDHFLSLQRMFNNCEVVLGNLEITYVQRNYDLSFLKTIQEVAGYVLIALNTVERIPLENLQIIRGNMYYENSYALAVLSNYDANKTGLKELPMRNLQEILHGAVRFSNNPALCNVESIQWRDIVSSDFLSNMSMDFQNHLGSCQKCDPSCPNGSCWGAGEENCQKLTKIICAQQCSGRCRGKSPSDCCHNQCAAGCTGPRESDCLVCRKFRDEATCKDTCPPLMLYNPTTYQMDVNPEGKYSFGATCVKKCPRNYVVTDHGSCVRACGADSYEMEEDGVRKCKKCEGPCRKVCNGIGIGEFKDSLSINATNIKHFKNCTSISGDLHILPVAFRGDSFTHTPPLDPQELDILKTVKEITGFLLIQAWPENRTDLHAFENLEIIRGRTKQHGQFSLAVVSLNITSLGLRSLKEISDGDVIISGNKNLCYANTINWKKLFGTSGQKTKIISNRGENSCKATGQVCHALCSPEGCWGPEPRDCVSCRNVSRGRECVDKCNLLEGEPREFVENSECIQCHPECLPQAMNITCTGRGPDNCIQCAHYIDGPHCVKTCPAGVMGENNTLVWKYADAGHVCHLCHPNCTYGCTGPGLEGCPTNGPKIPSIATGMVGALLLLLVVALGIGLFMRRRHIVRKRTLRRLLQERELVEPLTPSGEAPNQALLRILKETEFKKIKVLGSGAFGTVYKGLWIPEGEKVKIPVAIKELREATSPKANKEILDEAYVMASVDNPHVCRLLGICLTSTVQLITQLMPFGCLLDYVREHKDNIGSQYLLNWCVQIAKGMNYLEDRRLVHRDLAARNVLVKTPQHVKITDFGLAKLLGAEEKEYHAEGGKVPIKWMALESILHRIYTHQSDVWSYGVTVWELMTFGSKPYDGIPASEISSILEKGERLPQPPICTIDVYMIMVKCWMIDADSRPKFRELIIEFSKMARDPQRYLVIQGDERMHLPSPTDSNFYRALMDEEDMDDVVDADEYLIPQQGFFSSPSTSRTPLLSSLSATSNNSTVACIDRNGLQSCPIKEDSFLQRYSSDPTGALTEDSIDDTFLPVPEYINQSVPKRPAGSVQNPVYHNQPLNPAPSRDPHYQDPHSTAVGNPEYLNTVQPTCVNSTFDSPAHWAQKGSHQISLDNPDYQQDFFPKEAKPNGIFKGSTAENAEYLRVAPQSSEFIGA
Measured attribute: pIC50
Answers are plain numbers, as −log10 of the molar value.

Challenge: Print EGFR tyrosine kinase (Homo sapiens (Human), UniProt P00533) pIC50 for CCOCCOc1cc2ncnc(Nc3ccc(OCc4ccccn4)c(Cl)c3)c2cc1NC(=O)/C=C/CN(C)C [Embodiment 12] .
Response given: 7.99

* * *

Assignment: determine reported log10 IC50 for the given compounds.
- Test system: NCI H1975 (human non-small cell lung cancer cell lines)
- Assay details: Growth inhibition test in tumor cells (CCK8), NCI-H1975
- Format: cell-based
- Details: 72 h
All values: base-10 log of IC50 in nM.

Below, 3 compounds whose answers are already recorded.
{"Chem smiles": "C=C(F)C(=O)Nc1cc2c(Nc3ccc(F)c(Cl)c3)ncnc2cc1OCCOCC", "log10 IC50": 1.86}
{"Chem smiles": "CCOCCOc1cc2ncnc(Nc3ccc(OCC(F)(F)F)c(Cl)c3)c2cc1NC(=O)/C=C/CN(C)C", "log10 IC50": 2.03}
{"Chem smiles": "C=CC(=O)Nc1cc2c(Nc3ccc(F)c(Cl)c3)ncnc2cc1OCCOCC", "log10 IC50": 1.71}

Provide each entry's log10 IC50 from the list below.
1. CCOCCOc1cc2ncnc(Nc3ccc(F)c(Cl)c3)c2cc1NC(=O)/C=C\C#N
2. CCOCCOc1ccc(Nc2ncnc3cc(OCCOCC)c(NC(=O)/C=C/CN(C)C)cc23)cc1Cl
3. COC[C@H](C)Oc1cc2ncnc(Nc3ccc(F)c(Cl)c3)c2cc1NC(=O)/C=C/CN(C)C
4. CCOCCOc1cc2ncnc(Nc3ccc(OCc4cccc(F)c4)c(Cl)c3)c2cc1NC(=O)/C=C/CN(C)C
5. CCOCCOc1cc2ncnc(Nc3ccc(OCCOC)c(Cl)c3)c2cc1NC(=O)/C=C/CN(C)C
6. CCOCCOc1cc2ncnc(Nc3ccc(F)c(Cl)c3)c2cc1NC(=O)/C=C/Br
7. C=C(Br)C(=O)Nc1cc2c(Nc3ccc(F)c(Cl)c3)ncnc2cc1OCCOCC

Response given:
1. 1.26
2. 0.79
3. 1.82
4. 1.70
5. 0.86
6. 0.91
7. 1.60

I have 6 compounds here; please give me log10 IC50 for each one.
1. CCOCCOc1cc2ncnc(Nc3ccc(NCCS(C)(=O)=O)c(Cl)c3)c2cc1NC(=O)/C=C/CN(C)C
2. COC[C@@H](C)Oc1cc2ncnc(Nc3ccc(F)c(Cl)c3)c2cc1NC(=O)/C=C/CN(C)C
3. CCOCCOc1cc2ncnc(Nc3ccc(F)c(Cl)c3)c2cc1NC(=O)/C=C/C(=O)OC
4. C=C(Cl)C(=O)Nc1cc2c(Nc3ccc(F)c(Cl)c3)ncnc2cc1OCCOCC
5. CCOCCOc1cc2ncnc(Nc3ccc(F)c(Cl)c3)c2cc1NC(=O)/C=C\Cl
6. C#Cc1cccc(Nc2ncnc3cc(OCCOCC)c(NC(=O)/C=C/CN(C)C)cc23)c1

Response given:
1. 1.82
2. 1.70
3. 1.55
4. 1.57
5. 0.20
6. 1.66
